# TESTED_TARGET: Human adrenergic α1B receptor (Homo sapiens)
# Sequence (P35368 1-520): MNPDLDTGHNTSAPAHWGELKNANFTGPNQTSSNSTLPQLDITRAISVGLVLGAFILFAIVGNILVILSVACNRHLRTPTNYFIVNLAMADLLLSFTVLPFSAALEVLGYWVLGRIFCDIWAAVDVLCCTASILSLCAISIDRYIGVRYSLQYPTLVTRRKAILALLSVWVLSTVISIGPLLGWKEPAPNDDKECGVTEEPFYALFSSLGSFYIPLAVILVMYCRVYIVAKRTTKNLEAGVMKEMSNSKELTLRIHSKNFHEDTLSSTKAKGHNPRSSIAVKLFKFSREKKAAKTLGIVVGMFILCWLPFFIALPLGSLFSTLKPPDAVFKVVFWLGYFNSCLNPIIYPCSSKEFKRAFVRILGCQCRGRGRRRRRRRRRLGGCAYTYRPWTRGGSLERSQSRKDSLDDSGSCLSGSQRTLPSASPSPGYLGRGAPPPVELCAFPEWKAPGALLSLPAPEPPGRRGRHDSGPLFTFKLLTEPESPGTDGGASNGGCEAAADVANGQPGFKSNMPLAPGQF
# TEST_SUMMARY: Radioligand binding, adrenergic α1B (Protocol Group B)
# Design: purchased Milipore (Millipore)
# PROTOCOL_CONDITIONS: 0.1 μM compound; Protocol Group B; 0.1 µM
MEASURED_PROPERTY: Percentage inhibition of ligand binding, Adrenergic α1B (0.1 μM) (%)
Field: numeric (%). Do not append units.

Consider the worked cases shown below.
Cc1cc(F)cc2c3c(n(CC(C)(O)c4cccnc4)c12)CCN1CCCC31 (single isomer, unassigned) [75c] :: 41
Cc1cc(C)c2c(c1)c1c(n2CC(O)C2CCCCC2)CCN2CCCC12 (stereo not shown) [141b] :: 57
Cc1ccc2c(c1)c1c(n2CC(C)(O)c2cccnc2)CC2CCCN2C1 (stereo not shown) [41a] :: −2
CC(O)(Cn1c2c(c3cc(F)cc(Cl)c31)C1CCCN1CC2)c1cccnc1 (single isomer, unassigned) [89c] :: 0
Cc1ccc2c(c1)c1c(n2CC(C)(O)c2cccnc2)CC2CCC1N2C (single isomer, unassigned) [101d] :: 4
Cc1ccc2c(c1)c1c(n2CC(C)(O)c2ccncc2)CCN2CCCC12 (single isomer, unassigned) [13c] :: 9

Record lookup: for Human adrenergic α1B receptor (Homo sapiens), what Percentage inhibition of ligand binding, Adrenergic α1B (0.1 μM) belongs to Cc1cc(F)cc2c3c(n(CC(C)(O)c4cccnc4)c12)CC1CCCN1C3 (single isomer, unassigned) [76b] ?
4

Field entry: Cc1ccc2c(c1)c1c(n2CC(O)c2ccccn2)CC2CCCN2C1 (single isomer, unassigned) [45a]
12

Field entry: CC(O)(Cn1c2c(c3cc(F)ccc31)C1CCCN1CC2)c1cccnc1 (stereo not shown) [51a]
−6

Field entry: Cc1cc(C)c2c(c1)c1c(n2CC(C)(O)c2cccnc2)CCN2CCCC12 (single isomer, unassigned) [44a]
40

Field entry: Cc1cc(F)cc2c3c(n(CC(C)(O)c4ccncc4)c12)CC1CCCN1C3 (single isomer, unassigned) [78d]
1

Field entry: Cc1ccc2c(c1)c1c(n2CC(O)c2ccncc2F)CCN2CCCC12 (single isomer, unassigned) [14b]
85

Field entry: Cc1cc(C)c2c(c1)c1c(n2CC(C)(O)c2ccncc2)CCN2CCCC12 (stereo not shown) [compound 19]
77

Field entry: Cc1ccc2c(c1)c1c(n2CC(C)(O)c2cccnc2)CC2CCCN2C1 (stereo not shown) [41c]
1

Field entry: Cc1ccc2c(c1)c1c(n2CC(OCC2CCC2)c2ccncc2)CCN2CCCC12 (single isomer, unassigned) [138b]
57

Field entry: Cc1ccc2c(c1)c1c(n2CC(C)(O)c2cccnc2)CC2CCCN2C1 (single isomer, unassigned) [38c]
2

Data provenance: patent US20150315188A1
